assay explanation: Plasma pharmacokinetics after single oral dose of Δ8-THCV in MCT oil (LC-MS/MS, non-compartmental analysis)
Format: in vivo, human
assay context: Predose; 12.5 mg Δ8-THCV dose; Mean (SD, %CV)
assay endpoint: plasma concentration

INSERT INTO results (compound, result) VALUES
  ('CCCCCc1cc(O)c2c(c1)OC(C)(C)[C@@H]1CC=C(C(=O)O)CC21 (single isomer, unassigned; (+)) [Δ8-THC-COOH, (+)-11-nor-Δ8-THC-9-carboxylic acid]', '0 (±0, --) ng/mL'),
  ('CCCc1cc(O)c2c(c1)OC(C)(C)[C@@H]1CCC(C(=O)O)=C[C@@H]21', '0 (±0, --) ng/mL'),
  ('CCCc1cc(O)c2c(c1)OC(C)(C)[C@@H]1CC=C(CO)C[C@@H]21 (racemic) [11-OH-Δ8-THCV, (±)-11-hydroxy-Δ8-THCV]', '0 (±0, --) ng/mL'),
  ('CCCc1cc(O)c2c(c1)OC(C)(C)[C@@H]1CCC(C)=C[C@@H]21 [Δ9-THCV, Δ9-tetrahydrocannabivarin]', '0 (±0, --) ng/mL'),
  ('CCCc1cc(O)c2c(c1)OC(C)(C)[C@@H]1CC=C(C(=O)O)C[C@@H]21', '0.2 (±0.4, 267) ng/mL'),
  ('CCCc1cc(O)c2c(c1)OC(C)(C)[C@@H]1CC=C(C)C[C@@H]21 [Δ8-THCV, Δ8-tetrahydrocannabivarin]', '0 (±0, --) ng/mL');

====

assay explanation: Plasma pharmacokinetics after single oral dose of Δ8-THCV in MCT oil (LC-MS/MS, non-compartmental analysis)
Type: in vivo, human
assay context: human, plasma, oral, 100 mg, 6 h; 100 mg Δ8-THCV dose; Median (IQ Range)
Listed compounds paired with reported concentration at 6 h
assay endpoint: concentration at 6 h

INSERT INTO assay_data (compound, result) VALUES
  ('CCCc1cc(O)c2c(c1)OC(C)(C)[C@@H]1CC=C(CO)C[C@@H]21 (racemic) [11-OH-Δ8-THCV, (±)-11-hydroxy-Δ8-THCV]', '1.5 ng/mL'),
  ('CCCc1cc(O)c2c(c1)OC(C)(C)[C@@H]1CC=C(C)C[C@@H]21 [Δ8-THCV, Δ8-tetrahydrocannabivarin]', '7.7 ng/mL'),
  ('CCCCCc1cc(O)c2c(c1)OC(C)(C)[C@@H]1CC=C(C(=O)O)CC21 (single isomer, unassigned; (+)) [Δ8-THC-COOH, (+)-11-nor-Δ8-THC-9-carboxylic acid]', '0 ng/mL'),
  ('CCCc1cc(O)c2c(c1)OC(C)(C)[C@@H]1CCC(C(=O)O)=C[C@@H]21', '17.5 ng/mL'),
  ('CCCc1cc(O)c2c(c1)OC(C)(C)[C@@H]1CC=C(C(=O)O)C[C@@H]21', '497 ng/mL'),
  ('CCCc1cc(O)c2c(c1)OC(C)(C)[C@@H]1CCC(C)=C[C@@H]21 [Δ9-THCV, Δ9-tetrahydrocannabivarin]', '0 ng/mL');

====

assay explanation: Plasma pharmacokinetics after single oral dose of Δ8-THCV in MCT oil (LC-MS/MS, non-compartmental analysis)
Assay type: in vivo, human
assay context: human, plasma, oral, 25 mg, 6 h; 25 mg Δ8-THCV dose; Mean (SD, %CV)
Field: label. Allowed values: Criterion met (concentration at 6 h < 0.2 ng/mL) or Criterion not met (concentration at 6 h >= 0.2 ng/mL).

INSERT INTO results (compound, category_label) VALUES
  ('CCCc1cc(O)c2c(c1)OC(C)(C)[C@@H]1CC=C(C(=O)O)C[C@@H]21 [Δ8-THCV-COOH, 11-nor-9-carboxy-Δ8-THCV]', 'Criterion not met'),
  ('CCCc1cc(O)c2c(c1)OC(C)(C)[C@@H]1CCC(C)=C[C@@H]21 [Δ9-THCV, Δ9-tetrahydrocannabivarin]', 'Criterion met'),
  ('CCCc1cc(O)c2c(c1)OC(C)(C)[C@@H]1CCC(C(=O)O)=C[C@@H]21 [Δ9-THCV-COOH, 11-nor-9-carboxy-Δ9-THCV]', 'Criterion not met'),
  ('CCCc1cc(O)c2c(c1)OC(C)(C)[C@@H]1CC=C(C)C[C@@H]21 [Δ8-THCV, Δ8-tetrahydrocannabivarin]', 'Criterion not met'),
  ('CCCCCc1cc(O)c2c(c1)OC(C)(C)[C@@H]1CC=C(C(=O)O)CC21 (single isomer, unassigned; (+)) [Δ8-THC-COOH, (+)-11-nor-Δ8-THC-9-carboxylic acid]', 'Criterion met');
